- Experimental details: NCI Yeast Anticancer Drug Screen. Data for the rad50 strain (AID 155);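 also: 0% = growth of vehicle-only cultures of the same strain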
- Run parameters: S. cerevisiae rad50 strain growth inhibition; at 50.0 µM; hits give high values
The panel holds about 79,000 compounds, 15% with a hit somewhere; the sample as a whole holds those more often.
Measured growth inhibition, listed per entry for reference.
State the answer as a number, implicitly in %.

[
  {
    "Compound": "NCC1OC(n2cnc3c(N)ncnc32)CC1O (stereo not drawn)",
    "Reading unit": "%",
    "Observed measurement": -16.1
  },
  {
    "Compound": "CCOC(=O)CN/N=C(\\N)CSS(=O)(=O)O",
    "Reading unit": "%",
    "Observed measurement": -5.25
  },
  {
    "Compound": "Cc1ccc(N(C(=O)Nc2ccccc2)C2=NCC(C)S2)cc1C (stereo not drawn)",
    "Reading unit": "%",
    "Observed measurement": -29.5
  }
]

Now for another entry.
growth inhibition in this record for C/C(=N\NC(=O)/C(C#N)=C\c1ccc(N(CCC#N)CCC#N)cc1)c1ccccc1 : 0.2

---

- Experimental details: NCI Yeast Anticancer Drug Screen. Data for the rad50 strain (AID 155);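 also: 0% = growth of vehicle-only cultures of the same strain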
- Run parameters: S. cerevisiae rad50 strain growth inhibition; at 50.0 µM; hits give high values
- Description: Growth inhibition of yeast strains with defined genetic alterations is measured as a screen for potential anti-cancer activity. Selected strains with alterations in DNA damage repair or cell cycle control were exposed to compounds and growth inhibition was measured relative to vehicle treated controls. The strain used in this assay is rad50
The panel holds about 79,000 compounds, 15% with a hit somewhere; the sample as a whole holds those more often.
So basically: growth inhibition at 20% or higher? That is y. Lower than 20%? That is n.

[
  {
    "Compound": "C/C=C1\\CN2CCc3c([nH]c4ccccc34)C2C=C1CCO (configuration not stated)",
    "Label value": "n"
  },
  {
    "Compound": "CCCCCCCCCCCCCCCCCC(=O)N1C(=O)c2ccccc2C1=O",
    "Label value": "y"
  },
  {
    "Compound": "O=C1c2scnc2-c2nccc3c2c1nc1ccccc13",
    "Label value": "y"
  },
  {
    "Compound": "Cc1ccc(NC=O)cc1NC=O",
    "Label value": "y"
  },
  {
    "Compound": "CCOc1ccccc1/C=C1\\CCc2ccccc2C1=O",
    "Label value": "y"
  },
  {
    "Compound": "CCOC(=O)/C(=C/c1ccc(N(C)C)cc1)N(CC)CC",
    "Label value": "n"
  }
]

Next up:
Input: I'd appreciate it if you could say whether CCC1(O)c2ccccc2CCC1C (configuration not stated) has growth inhibition at least equal to 20%.
Output: n

---

- Experimental details: NCI Yeast Anticancer Drug Screen. Data for the sgs1 mgt1 strain (AID 161);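 also: 0% = growth of cultures given vehicle only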
- Run parameters: S. cerevisiae sgs1 mgt1 strain, at 50.0 µM, hits give high values
Compounds without any hit were thinned out: in the full panel of roughly 79,000, 15% have a hit.
Measured growth inhibition, listed per entry for reference.
State the answer as a number, implicitly in %.

For orientation, consider the following solved cases.
[
  {
    "Compound": "Nc1cc(N)nc(S(=O)O)n1",
    "growth inhibition [%]": 16.1
  },
  {
    "Compound": "COC(=O)c1cn2ccc3ccccc3c2c1C(=O)OC",
    "growth inhibition [%]": 9
  },
  {
    "Compound": "Fc1ccc(F)c(C(Nc2nncs2)Nc2nncs2)c1",
    "growth inhibition [%]": 7.75
  },
  {
    "Compound": "Cc1cnc2[nH]c(-c3cccc4ccccc34)cc(=O)c2c1",
    "growth inhibition [%]": 16.1
  },
  {
    "Compound": "Cc1ccc(S(=O)(=O)NN=C2C(C)CC(C(C)(C)C)CC2C)cc1 (stereo not given)",
    "growth inhibition [%]": -41.9
  }
]

growth inhibition in this record for CCOC(=O)C1=C(C(=O)C(C)(C)C)C(c2ccc([N+](=O)[O-])cc2)C(C(=O)C(C)(C)C)=C(C(=O)OCC)N1 : 9.4

growth inhibition in this record for Cc1nc(Cl)c(Cl)c(Cl)n1 : -0.6

---

- Experimental details: NCI Yeast Anticancer Drug Screen. Data for the mlh1 rad18 strain (AID 175)
- Run parameters: S. cerevisiae mlh1 rad18 strain growth inhibition; at 50.0 µM; hits give high values
The panel holds about 79,000 compounds, 15% with a hit somewhere; the sample as a whole holds those more often.
Measured growth inhibition, listed per entry for reference.
State the answer as a number, implicitly in %.

For orientation, consider the following solved cases.
[
  {
    "Compound": "CCCOCN1COCN=C1NC#N",
    "growth inhibition [%]": 5.75
  },
  {
    "Compound": "CN1C(=O)N(C)C2(CCN(CC(CC3OCCO3)c3ccc(F)cc3)CC2)C1=O (centres undefined)",
    "growth inhibition [%]": -1.55
  },
  {
    "Compound": "CCN(CC)CCOC(=O)c1ccc(N=NC2Sc3nc4ccccc4n3C2=O)cc1 (centres undefined)",
    "growth inhibition [%]": 27.8
  },
  {
    "Compound": "Cc1nn(C)c(=O)c2nn(-c3ccccc3)c(C)c12",
    "growth inhibition [%]": 1.25
  },
  {
    "Compound": "COc1cc2c(cc1OC)C1c3ccccc3CCCN1CC2 (centres undefined)",
    "growth inhibition [%]": -27
  },
  {
    "Compound": "O=[N+]([O-])c1cccc(C2CC(c3ccccc3)=NN2c2ccccc2)c1 (centres undefined)",
    "growth inhibition [%]": -7.3
  },
  {
    "Compound": "O=C(Nc1ccc(Cl)cc1[N+](=O)[O-])Oc1ccc(-c2ccccc2)cc1Cl",
    "growth inhibition [%]": 99.7
  },
  {
    "Compound": "C#CC(C)OC(=O)Nc1ccccc1 (centres undefined)",
    "growth inhibition [%]": -8.3
  },
  {
    "Compound": "CCOC(=O)Nc1cc([N+](C)(C)C)ccc1OCCOc1ccc([N+](C)(C)C)cc1",
    "growth inhibition [%]": 28.6
  },
  {
    "Compound": "Cc1ccc(C(=O)/C=C/c2ccco2)cc1",
    "growth inhibition [%]": 61.3
  }
]

growth inhibition in this record for Cc1ccc(S(=O)c2ccccc2[N+](=O)[O-])cc1 (centres undefined) : -2

growth inhibition in this record for CCc1cccc(C(C)C)c1NC(=O)C(=O)C1C(=O)Nc2ccccc2S1=O (centres undefined) : -29.1

growth inhibition in this record for CC/C(CCC(=O)OC)=N/Nc1ccc([N+](=O)[O-])cc1[N+](=O)[O-] : -10.6

growth inhibition in this record for O=Cc1cccc2c([N+](=O)[O-])cccc12 : 49.5

growth inhibition in this record for COC(=O)CC1(C)[C@H](O)[C@H]2OC(C)(C)O[C@H]2[C@@H]1O (some centres undefined) : 38.2

growth inhibition in this record for CCNCc1cc(Nc2cc(C)nc(/N=C(\N)Nc3ccc(Cl)c(Cl)c3)n2)ccc1OC : 98.4

growth inhibition in this record for Cc1cccn(C)c1=O : 3.05

growth inhibition in this record for CCOCCOC(=O)C1CCCC1=O (centres undefined) : -8.45

growth inhibition in this record for CC1(C)OC(=O)C(C(N)=O)C1c1ccc(Cl)cc1 (centres undefined) : 13.8

growth inhibition in this record for Cc1cc2c(cc1C)C(O)CCC(=O)N2 (centres undefined) : -0.05

growth inhibition in this record for c1ccc2cc(CCc3cc4ccccc4cn3)ncc2c1 : 25.6

---

Measured growth inhibition, listed per entry for reference.
- Experimental details: NCI Yeast Anticancer Drug Screen. Data for the rad50 strain (AID 155);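 also: 0% = growth of vehicle-only cultures of the same strain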
- Run parameters: S. cerevisiae rad50 strain growth inhibition; at 50.0 µM; hits give high values
Compounds without any hit were thinned out: in the full panel of roughly 79,000, 15% have a hit.
State the answer as a number, implicitly in %.

For orientation, consider the following solved cases.
[
  {
    "Molecule": "COc1cccc(-c2cc(=O)c3cccnc3[nH]2)c1",
    "growth inhibition / %": -49.4
  },
  {
    "Molecule": "CNC(=S)N/N=C/c1nc2ccccc2c(=O)n1-c1ccc(Cl)cc1",
    "growth inhibition / %": 19.6
  },
  {
    "Molecule": "O=C(O)/C=C\\C(=O)Nc1ccc(S(=O)(=O)Nc2nccs2)cc1",
    "growth inhibition / %": -0.8
  },
  {
    "Molecule": "O=[N+]([O-])c1c(Cl)cc(Cl)c([N+](=O)[O-])c1-c1ccccc1",
    "growth inhibition / %": -17.1
  },
  {
    "Molecule": "O=C(N=Nc1c(O)[nH]c2c(Cl)cc(Cl)cc12)C(=O)Nc1cccc(C(F)(F)F)c1",
    "growth inhibition / %": -8.85
  },
  {
    "Molecule": "O=C(CN1CCN(c2ccccc2)CC1)N1CCc2c([nH]c3ccccc23)C1c1cccnc1 (stereo not given)",
    "growth inhibition / %": 2.45
  },
  {
    "Molecule": "CCN(CC)c1ccc(C(=O)c2ccccc2C(=O)O)c(O)c1",
    "growth inhibition / %": -38.2
  },
  {
    "Molecule": "CC(C)(C)CC(C)(C)c1ccc2c(c1)NC(C1Nc3cc(C(C)(C)CC(C)(C)C)ccc3O1)O2 (stereo not given)",
    "growth inhibition / %": 8.05
  },
  {
    "Molecule": "CO/N=C1\\C(C)(C)C(C)(C)C(C)(C)C1(C)SS(=O)(=O)O (stereo not given)",
    "growth inhibition / %": 23.6
  }
]

Now for another entry.
growth inhibition in this record for Clc1ccc(/C=N/N2CCN(/N=C/c3ccc(Cl)cc3)CC2)cc1 : -3.1
